- method_notes: NCI Yeast Anticancer Drug Screen. Data for the mlh1 rad18 strain (AID 175)
- condition_context: S. cerevisiae mlh1 rad18 strain growth inhibition; at 50.0 µM; stronger effect = higher value
This is part of a sample that, as a whole, favours compounds with a hit. Of some 79,000 tested, about 15% had one in any assay.
Rule: growth inhibition under 30% gives false, otherwise true.

Example entries and their recorded answers appear below.
CC(=O)Oc1cc2c(c3ccc4ccccc4c13)CCc1ccccc1-2 = false
CC(=O)O[C@@H]1CC[C@@]2(C)C(=O)C34C[C@@]5(C)C([C@@H](C)CCCC(C)C)CCC5(C)[C@](O)(O3)C(=O)[C@H]4C2C1(C)C (stereo partly specified) = false
CN1c2ccccc2C(=O)NC12CCN(CC1COc3ccccc3O1)CC2 (stereo unspecified) = true
Cc1ccc(OC/C=C/c2ccc(C#N)cc2)cc1 = false
O=C(NC(=S)OC1CCCC1OC(=S)NC(=O)c1ccccc1)c1ccccc1 (stereo unspecified) = false

Query molecule follows.
[Q] Check this molecule for growth inhibition at or above 30%: CCOC(=O)CNCc1cccc(C)c1
[A] false

Hello, the source for this data is PubChem BioAssay (NCI), in case you need it.
